# Tested on: MS2 coat protein
# protocol-details: apparent KD of MS2 coat protein; designed switch direction (-1 OFF switch, 1 ON switch): 1; higher = weaker reporter binding
# applied-conditions: Eterna round: R95; input ligand: none
Cut-off 100 nM on apparent KD of MS2 coat protein, inclusive. At or above means met; below means not met.

These recorded examples may help you get a feel for the data.
item-sequence	group
UAGAGAGGAAGCGAGGAUAUCGUGGGAGGGACAUGAGGAUCACCCAUGUAGGAUGUUGAGAGGAACGAGAAGGCGCAGGAAAGAA [JR_SS2_Sub075] (puzzle: Same State 2)	met
AAGGGAUGAGCGUAGGAUAUAGGAGAAGUGACAUGAGGAUCACCCAUGUAGGAGGAGGGAUGAGACUAGAAGGACGAGGUAGGAG [JR_SS2_Sub060] (puzzle: Same State 2)	not met
CGUAGGUGGCUGGAGGAUAUUCGAGUGGUAACAUGAGGAUCACCCAUGUGUCGCGCGGUACAUGAGGAGAAGGCUAGCGGCCUGC (puzzle: Same State 2)	met
GAAUAAGUUUACGAGGAUAUGUUCCGCAUAACAUGAGGAUCACCCAUGUGAACAAGAAAGGCGACGCAGAAGGCGUGAGCAGAAG [Mat - Same State 2 - Mod of UCT - D100] (puzzle: Same State 2)	met

Attention now turns to another entry.
Please indicate if the recorded apparent KD of MS2 coat protein for AUAAAACAUGAGGAUCACCCAUGUCAACAAAGUCGAGGAUAUUGGCAAAUAAAAUAAGAACCAGAAGGCGAAUAAU [salish99_ss1_r3_050] (puzzle: Same State 1) meets or exceeds 100 nM.
not met

----------
Measured apparent KD of K4 kissing-loop reporter, listed per entry.
# System: K4 kissing-loop RNA reporter;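 note: bound reporter read as fluorescence of individual clusters on recovered sequencing chips by microscopy, with normalized cluster intensities fitted with a binding model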
# protocol-details: apparent KD of K4 kissing-loop reporter; higher = weaker reporter binding
# applied-conditions: Eterna round: R107; input ligand: theophylline 20 uM
Lab note: write values as number then unit, every time.

Before answering, review these 5 worked examples.
item-sequence	apparent KD of K4 kissing-loop reporter
AGCGUCCCUACGGCCGCCACUGGGAGUGAUGUUCCCAGGUUAGGCCUGAGGAUACUAAGGAUCGCCAGGACCGGGUAGCGACCAU [Azaonbe]	69.2 nM
CCAUCGCUAUUCGAUACCAGCUACUUAGUGAUGUUAAGUUUAUAUCCACUGUAGGUGGAAAGCCCUUGGCAGCGAAUAGUGAUGG [Theophylline B K4 25]	223 nM
AAAUUUAUAUUAGAUACCAGCAAAUUGAAAGUUUAUUAUGACAAGAGUGAUGUUCUUGUAUGCCCUUGGCAGCUGGUAUGGGUUU [KL-XTheo-B26]	111 nM
AGACCUCAGUGAUGUUGAGGUAACGCUGAUACCAGUGACUUAAUUCACCCUUGGCAGCAGUCCACCAAGGUAUCUGAUUAGGUCU [Theo A Ex t5]	144 nM
UCUGGUAUAUCUGAUACCAGAGAAUAGAAUCAAUUGAAUAUGGAGUGAUGUUCCAUAAAACUCCCUUGGCAGCAGAUAAUCAUAU [Same State Theophylline B GF 22]	172 nM

If you can, please state the reported apparent KD of K4 kissing-loop reporter value of UCCUGCAAUCUGCCACGAAAGUGGGUUGAUACCAGAGUCGAAAGACUCCCUUGGCAGCGAGUGAUGUUCGUUGCAGGUGUAUAAA [MatMod 10 - Jieux - Exclusion - Theophylline A] .
209 nM
